System: S. aureus (MRSA)
Assay type: cell-based, Staphylococcus aureus
RECORDED_CONDITIONS: mean of three; 16 to 20 hours at 35° C.
No end group written: not given here.
The substances listed here are annotated with their S. aureus (MRSA) MIC.
MEASUREMENT_NAME: S. aureus (MRSA) MIC (µg/mL)

{"columns": ["SUBSTANCE", "OBS_VALUE"],
 "data": [
  ["FAKKLAKKLL-NH2 [P59]", 8],
  ["FAKLLALALKKAL-NH2 [P97, FAKLLALALKKAL-NH2]", 8],
  ["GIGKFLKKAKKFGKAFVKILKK-NH2 [P42, reference compound]", 16],
  ["FAKKLAKKLAKLL-NH2 [P75]", 32],
  ["FAKKFAKKFKKFAKKFAKFAFAF-NH2 [P301, reference compound]", 8],
  ["FAKLLAKLAKKLL-NH2 [P43]", 4],
  ["KWKLFKKKTKLFKKFAKKLAKKL-NH2 [P73]", 16],
  ["FAKLLALALKLKL-NH2 [P94]", 16],
  ["FALAAKALKKLAKKLKKLAKKAL-NH2 [P23]", 32],
  ["FAKLLAKLAKKL-NH2 [P49]", 64],
  ["FAKLLAKALKKFAL-NH2 [P119, FAKLLAKALKKFAL-NH2]", 8],
  ["FALKALKKLKKALKKAL-NH2 [P153]", 16]
]}

* * *

Test system: WI38
RECORDED_CONDITIONS: MTT, 24 hours with peptide; normal fibroblast line
No end group written: not given here.
The substances listed here are annotated with their WI38 LD50.

{"columns": ["SUBSTANCE", "WI38 LD50 (µg/mL)"],
 "data": [
  ["FAKKLAKKLKKLAKLALAK-NH2 [P41]", 175],
  ["FAKLLAKALKKFL-NH2 [P118]", 170],
  ["KLAKKLAKLAKLAKAL-OH [P160, reference compound]", 700],
  ["MPKWKVFKKIEKVGRNIRNGIVKAGPAIAVLGEAKALG-OH [SB37COOH]", 130],
  ["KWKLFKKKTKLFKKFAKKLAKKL-OH [P81]", 8],
  ["FAKKLAKKLAKLL-NH2 [P75]", 80],
  ["FALALKALKKALKKLKKALKKAL-NH2 [P2, reference compound]", 66],
  ["FALLKALKKAL-NH2 [P171, FALLKALKKAL-NH2]", 615]
]}

* * *

METHOD: in vitro
Type: cell-based, human
RECORDED_CONDITIONS: human, human red blood cells, pH 7, hemolytic assay, concentration at 50% hemolysis, 1 hour at 37° C.; read-out: LD50

{"columns": ["COMPOUND", "HC50 at 1 h / µg/mL"],
 "data": [
  ["CC[C@H](C)[C@H](N)C(=O)N[C@@H](CC(C)C)C(=O)N1CCC[C@H]1C(=O)N[C@@H](Cc1c[nH]c2ccccc12)C(=O)N[C@@H](CCCCN)C(=O)N[C@@H](Cc1c[nH]c2ccccc12)C(=O)N1CCC[C@H]1C(=O)N[C@@H](Cc1c[nH]c2ccccc12)C(=O)N[C@@H](Cc1c[nH]c2ccccc12)C(=O)N1CCC[C@H]1C(=O)N[C@@H](Cc1c[nH]c2ccccc12)C(=O)N[C@@H](CCCNC(=N)N)C(=O)N[C@@H](CCCNC(=N)N)C(N)=O [P63, reference compound]", 375]
]}
